pIC50: −log10 of the molar value.
Before we begin, note that these pIC50 values for UniProt O39930 originate from several publications.
Each entry gets N if its pIC50 stays under 6, and Y if its pIC50 is 6 or above.

MOLECULE	GROUP LABEL
Cc1ccc(C(=O)N/C(=C\c2ccc(Oc3ccccc3Br)cc2)C(=O)O)cc1	Y
O=C(O)c1ccc2c(C3CCCCC3)c3n(c2c1)CCN(Cc1ccccc1)c1ccccc1-3	Y
O=C(Nc1cccc(O)c1)/C(=C/c1ccc(Oc2ccccc2Br)cc1)NC(=O)c1ccccc1	N
N#Cc1ccc(Br)cc1COc1cccc(/C(O)=C/C(=O)C(=O)O)c1	Y
O=C(O)C(=O)/C=C(\O)c1cccc(-c2ccccc2)c1	N
O=c1[nH]cnc2nc(-c3ccccc3)c(-c3ccc([N+](=O)[O-])cc3)nc12	N
Oc1ncnc2nc(-c3ccccc3)c(-c3ccccc3)nc12	N
CNC(=O)c1c(-c2ccc(F)cc2)oc2nc(CNC(=O)C3CCOC3)c(C3CC3)cc12 (stereo not given)	N
CCCCOc1ccccc1C(=O)CC(=O)C(=O)O	N
O=C(O)C(=O)/C=C(\O)c1cccc(N2CCCC2)c1	N
O=C(O)/C(=C/c1ccc(-c2cccc([N+](=O)[O-])c2)o1)NC(=O)c1ccccc1	N
CCOC(=O)c1nc2cc(C(=O)O)ccc2n1C1CCCCC1	N
O=C(CCc1ccc(F)cc1)N/C(=C\c1ccc(Oc2ccccc2Br)cc1)C(=O)O	Y
Cc1sc(-c2ccccc2)cc1/C(O)=C/C(=O)C(=O)O	N
COc1cccc(/C(O)=C/C(=O)C(=O)O)c1	N
O=C(O)c1ccc2c(c1)nc(C1CCCCC1)n2C1CCCCC1	N
O=C(O)/C(=C/c1ccc(-c2ccccc2OC(F)(F)F)o1)NC(=O)c1ccccc1	N
CCC(C)[C@H]1C(O)=C(C2=NS(=O)(=O)c3ccccc3N2)C(=O)N1Cc1ccccc1 (stereo not given in full)	Y
C#C[C@]1(O)[C@H](n2ccc(=O)[nH]c2=O)O[C@](F)(COP(=O)(O)OP(=O)(O)OP(=O)(O)O)[C@H]1O	Y
O=C(O)C(=O)CC(=O)c1ccccc1OCc1ccccc1	N
N#Cc1cccc(Cl)c1COc1cc(O)cc(/C(O)=C/C(=O)C(=O)O)c1	Y
N#CCCCOc1ccc(O)cc1/C(O)=C/C(=O)C(=O)O	Y
O=C(CCC1CCCCC1)N/C(=C\c1ccc(Oc2ccccc2Br)cc1)C(=O)O	N
O=C(O)C(=O)/C=C(\O)c1ccsc1Cc1ccc(F)cc1	N
Cc1ccc(C(=O)CC(=O)C(=O)O)cc1	N
Oc1ncnc2nc(-c3ccc(F)cc3)c(-c3ccc(F)cc3)nc12	Y
COc1ccc(-c2ccc(Cl)cc2)c(COc2ccc(-c3nc4cc(C(=O)O)ccc4n3C3CCCCC3)cc2)c1	Y
O=C(N[C@@H](Cc1c[nH]c2ccc(NS(=O)(=O)C(F)(F)F)cc12)C(=O)O)c1ccc2c(c1)nc(-c1ccoc1)n2C1CCCCC1	Y
CC(C)n1c(-c2ccccn2)nc2cc(C(=O)O)ccc21	N
Fc1ccc(-c2nc3ncnc(NCc4ccco4)c3nc2-c2ccc(F)cc2)cc1	N
O=C(O)c1ccc2c(c1)nc(-c1ccccn1)n2-c1ccccc1	N
O=C(O)c1ccc2c(c1)nc(-c1ccccn1)n2C1CCCCCC1	N
O=C(O)C1CSCN1S(=O)(=O)c1cc(Cl)cc(Cl)c1O (single isomer, unassigned; 34)	N
CC(C)N1CCn2c(c(C3CCCCC3)c3ccc(C(=O)O)cc32)-c2ccccc21	Y
O=C(O)[C@H](Cc1ccccc1)N(Cc1cccnc1)C(=O)c1ccc(Cl)cc1Cl	N
O=C(NCCO)/C(=C/c1ccc(Oc2ccccc2Br)cc1)NC(=O)c1ccccc1	N
